- System: RARb:RXRa (NR concentration 270 nM, RXRa partner concentration 90 nM)
- EXPERIMENTAL DETAILS: PBM binding z-score (relative to random genomic background probes); higher = stronger binding; sequences stand for … in GC…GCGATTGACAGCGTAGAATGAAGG
Rule: PBM binding z-score under 2 gives no, otherwise yes.

{"columns": ["SEQUENCE TEXT", "GROUP LABEL"],
 "data": [
  ["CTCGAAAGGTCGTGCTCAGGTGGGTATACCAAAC", "yes"],
  ["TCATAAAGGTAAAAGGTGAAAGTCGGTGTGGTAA", "yes"],
  ["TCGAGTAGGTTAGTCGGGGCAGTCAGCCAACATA", "no"],
  ["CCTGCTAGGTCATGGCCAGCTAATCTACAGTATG", "yes"],
  ["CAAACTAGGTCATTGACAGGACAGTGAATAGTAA", "yes"],
  ["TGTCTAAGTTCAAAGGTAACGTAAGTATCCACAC", "yes"],
  ["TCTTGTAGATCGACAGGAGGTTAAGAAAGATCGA", "no"],
  ["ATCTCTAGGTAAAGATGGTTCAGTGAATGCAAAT", "no"],
  ["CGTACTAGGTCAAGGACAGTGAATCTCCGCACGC", "yes"],
  ["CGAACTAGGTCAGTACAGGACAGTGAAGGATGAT", "yes"],
  ["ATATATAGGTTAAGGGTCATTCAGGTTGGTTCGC", "yes"],
  ["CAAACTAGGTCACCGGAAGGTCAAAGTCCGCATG", "yes"],
  ["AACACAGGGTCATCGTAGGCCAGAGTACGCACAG", "yes"],
  ["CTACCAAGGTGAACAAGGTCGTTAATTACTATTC", "yes"],
  ["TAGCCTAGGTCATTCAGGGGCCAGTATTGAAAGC", "yes"],
  ["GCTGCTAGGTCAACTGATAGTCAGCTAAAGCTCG", "yes"],
  ["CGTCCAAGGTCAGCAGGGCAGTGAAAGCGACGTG", "yes"],
  ["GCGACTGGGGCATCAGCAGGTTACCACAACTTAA", "no"],
  ["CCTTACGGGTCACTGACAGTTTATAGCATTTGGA", "yes"],
  ["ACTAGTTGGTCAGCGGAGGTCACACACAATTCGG", "yes"],
  ["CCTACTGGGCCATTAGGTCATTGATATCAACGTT", "yes"],
  ["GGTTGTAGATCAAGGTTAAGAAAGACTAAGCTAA", "no"],
  ["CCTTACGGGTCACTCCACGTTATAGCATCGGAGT", "yes"],
  ["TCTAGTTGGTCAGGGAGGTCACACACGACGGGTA", "yes"],
  ["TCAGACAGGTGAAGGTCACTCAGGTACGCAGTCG", "yes"],
  ["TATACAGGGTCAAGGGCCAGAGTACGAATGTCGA", "yes"],
  ["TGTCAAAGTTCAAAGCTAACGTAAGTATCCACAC", "yes"],
  ["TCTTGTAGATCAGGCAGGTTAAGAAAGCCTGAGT", "no"],
  ["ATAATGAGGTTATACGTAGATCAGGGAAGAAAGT", "no"],
  ["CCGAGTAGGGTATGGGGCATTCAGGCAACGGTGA", "no"],
  ["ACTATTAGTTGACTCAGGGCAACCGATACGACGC", "no"],
  ["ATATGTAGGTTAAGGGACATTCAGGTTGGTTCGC", "no"],
  ["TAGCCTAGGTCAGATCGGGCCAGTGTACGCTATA", "yes"],
  ["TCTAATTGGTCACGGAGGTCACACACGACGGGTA", "yes"],
  ["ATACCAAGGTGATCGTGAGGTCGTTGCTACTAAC", "no"],
  ["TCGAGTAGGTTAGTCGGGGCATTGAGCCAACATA", "no"],
  ["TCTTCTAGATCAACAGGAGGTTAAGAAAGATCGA", "no"],
  ["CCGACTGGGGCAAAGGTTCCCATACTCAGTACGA", "no"],
  ["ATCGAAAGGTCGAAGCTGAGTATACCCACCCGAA", "yes"]
]}

###

Each record here notes measured PBM binding z-score.
- System: RARb homodimer (NR concentration 270 nM)
- EXPERIMENTAL DETAILS: PBM binding z-score (relative to random genomic background probes); higher = stronger binding; sequences stand for … in GC…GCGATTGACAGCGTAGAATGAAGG

{"columns": ["SEQUENCE TEXT", "PBM binding z-score"],
 "data": [
  ["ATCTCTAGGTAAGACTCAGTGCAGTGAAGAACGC", 0.192],
  ["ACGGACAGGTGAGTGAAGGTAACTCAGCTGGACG", 0.226],
  ["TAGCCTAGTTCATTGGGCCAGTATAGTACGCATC", 0.671],
  ["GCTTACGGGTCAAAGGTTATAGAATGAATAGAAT", 3.44],
  ["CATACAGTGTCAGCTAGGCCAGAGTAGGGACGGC", 0.245],
  ["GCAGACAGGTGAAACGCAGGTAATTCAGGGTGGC", 0.413],
  ["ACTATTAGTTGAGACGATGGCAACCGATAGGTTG", -0.57],
  ["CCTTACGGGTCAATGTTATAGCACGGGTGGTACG", 2.54],
  ["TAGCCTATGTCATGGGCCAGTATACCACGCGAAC", 0.149],
  ["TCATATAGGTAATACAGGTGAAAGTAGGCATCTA", 0.649],
  ["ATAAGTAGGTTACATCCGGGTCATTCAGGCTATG", 2.83],
  ["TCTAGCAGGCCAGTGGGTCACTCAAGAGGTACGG", 1.64],
  ["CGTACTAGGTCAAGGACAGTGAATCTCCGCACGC", 3.14],
  ["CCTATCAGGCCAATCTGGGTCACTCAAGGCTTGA", 2.48],
  ["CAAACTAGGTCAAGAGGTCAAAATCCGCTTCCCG", 5.66],
  ["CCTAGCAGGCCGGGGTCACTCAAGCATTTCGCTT", 3.68]
]}

###

- System: PPARg:RXRa DBDmut IVT, anti-RXR (DBD mutation: RXRa K156A/R161A, NR concentration 270 nM, RXRa partner concentration 90 nM)
- EXPERIMENTAL DETAILS: PBM binding z-score (relative to random genomic background probes); higher = stronger binding; sequences stand for … in GC…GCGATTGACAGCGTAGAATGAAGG
Here, each record is paired with measured PBM binding z-score data.
REPORTED METRIC: PBM binding z-score

{"columns": ["SEQUENCE TEXT", "ENDPOINT VALUE"],
 "data": [
  ["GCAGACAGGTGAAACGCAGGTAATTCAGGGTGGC", 0.893],
  ["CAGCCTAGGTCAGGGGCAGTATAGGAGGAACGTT", 1.2],
  ["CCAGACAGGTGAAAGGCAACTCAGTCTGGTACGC", 0.767],
  ["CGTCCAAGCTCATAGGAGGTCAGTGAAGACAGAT", 0.199],
  ["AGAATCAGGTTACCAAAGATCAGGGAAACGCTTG", 3.77],
  ["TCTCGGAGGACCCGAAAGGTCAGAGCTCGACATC", 1.1],
  ["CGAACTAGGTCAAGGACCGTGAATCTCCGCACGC", 7.68],
  ["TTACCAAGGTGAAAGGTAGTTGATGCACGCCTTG", 2.96],
  ["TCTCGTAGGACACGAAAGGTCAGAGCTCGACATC", 1.81],
  ["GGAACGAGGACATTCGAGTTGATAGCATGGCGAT", 0.421],
  ["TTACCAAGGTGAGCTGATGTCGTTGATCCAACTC", 1.17],
  ["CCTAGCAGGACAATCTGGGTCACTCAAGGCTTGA", 4.78],
  ["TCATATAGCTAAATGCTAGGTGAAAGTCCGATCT", 1.45],
  ["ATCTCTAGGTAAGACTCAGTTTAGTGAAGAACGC", 2.06],
  ["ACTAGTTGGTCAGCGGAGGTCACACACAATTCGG", 1.63],
  ["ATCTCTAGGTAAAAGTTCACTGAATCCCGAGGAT", 2.27],
  ["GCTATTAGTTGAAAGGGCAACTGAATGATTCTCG", 0.54],
  ["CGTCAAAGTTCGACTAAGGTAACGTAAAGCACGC", 0.0158],
  ["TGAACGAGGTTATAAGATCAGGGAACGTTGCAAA", 0.0481]
]}

###

- System: PPARg:RXRa 270nM:90nM, anti-RXR (NR concentration 270 nM, RXRa partner concentration 90 nM)
- EXPERIMENTAL DETAILS: PBM binding z-score (relative to random genomic background probes); higher = stronger binding; sequences stand for … in GC…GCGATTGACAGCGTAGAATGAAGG
REPORTED METRIC: PBM binding z-score

{"columns": ["SEQUENCE TEXT", "REPORTED METRIC", "ENDPOINT VALUE"],
 "data": [
  ["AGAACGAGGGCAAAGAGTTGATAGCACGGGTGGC", "PBM binding z-score", 2.07],
  ["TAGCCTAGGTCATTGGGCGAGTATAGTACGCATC", "PBM binding z-score", 2.83],
  ["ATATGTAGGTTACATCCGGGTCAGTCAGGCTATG", "PBM binding z-score", 4.69],
  ["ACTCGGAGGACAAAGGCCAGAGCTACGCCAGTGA", "PBM binding z-score", 2.38],
  ["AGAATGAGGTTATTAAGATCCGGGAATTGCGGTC", "PBM binding z-score", 1.15],
  ["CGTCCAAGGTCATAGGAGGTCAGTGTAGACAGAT", "PBM binding z-score", 5.77],
  ["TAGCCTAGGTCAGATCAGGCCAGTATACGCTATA", "PBM binding z-score", 0.923],
  ["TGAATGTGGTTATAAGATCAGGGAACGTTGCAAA", "PBM binding z-score", 0.617],
  ["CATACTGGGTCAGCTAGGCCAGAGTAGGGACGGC", "PBM binding z-score", 2.95],
  ["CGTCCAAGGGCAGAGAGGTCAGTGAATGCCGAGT", "PBM binding z-score", 1.19],
  ["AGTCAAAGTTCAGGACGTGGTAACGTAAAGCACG", "PBM binding z-score", 4.75],
  ["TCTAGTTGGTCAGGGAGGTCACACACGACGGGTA", "PBM binding z-score", 3.13],
  ["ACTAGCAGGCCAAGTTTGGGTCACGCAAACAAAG", "PBM binding z-score", 1.04],
  ["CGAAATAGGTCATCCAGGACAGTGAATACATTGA", "PBM binding z-score", 6.78],
  ["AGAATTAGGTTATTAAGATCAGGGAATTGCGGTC", "PBM binding z-score", 2.31],
  ["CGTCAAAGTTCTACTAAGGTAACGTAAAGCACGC", "PBM binding z-score", 0.289],
  ["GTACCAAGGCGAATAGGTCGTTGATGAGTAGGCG", "PBM binding z-score", -0.0926],
  ["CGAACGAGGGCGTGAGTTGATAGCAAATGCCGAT", "PBM binding z-score", 0.0824],
  ["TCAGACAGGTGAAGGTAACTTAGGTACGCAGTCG", "PBM binding z-score", 2.45],
  ["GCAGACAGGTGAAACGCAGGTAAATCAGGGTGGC", "PBM binding z-score", -0.213],
  ["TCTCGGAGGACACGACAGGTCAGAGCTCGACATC", "PBM binding z-score", 1.1]
]}
